Biological target: HCV NS5B polymerase 1a-H77 (Hepatitis C virus genotype 1a, UniProt P27958)
Construct: six-histidine tag; made in house; host or cells: E. coli
Sequence (P27958 2421-2990): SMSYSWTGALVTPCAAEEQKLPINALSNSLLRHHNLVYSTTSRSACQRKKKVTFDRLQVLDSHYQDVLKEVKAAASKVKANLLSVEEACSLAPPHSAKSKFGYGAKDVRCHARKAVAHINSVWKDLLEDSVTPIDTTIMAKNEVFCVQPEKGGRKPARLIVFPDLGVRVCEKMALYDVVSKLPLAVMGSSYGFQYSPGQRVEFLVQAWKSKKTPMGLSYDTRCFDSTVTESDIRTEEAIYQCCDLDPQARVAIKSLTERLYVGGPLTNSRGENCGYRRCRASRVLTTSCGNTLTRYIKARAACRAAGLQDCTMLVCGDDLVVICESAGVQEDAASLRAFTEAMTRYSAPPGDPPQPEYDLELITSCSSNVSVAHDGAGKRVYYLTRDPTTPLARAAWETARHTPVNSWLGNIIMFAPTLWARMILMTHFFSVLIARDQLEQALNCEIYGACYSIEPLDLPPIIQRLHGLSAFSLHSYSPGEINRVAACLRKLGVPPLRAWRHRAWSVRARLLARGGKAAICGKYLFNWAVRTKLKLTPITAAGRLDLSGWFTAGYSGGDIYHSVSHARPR
Test: biochemical
Parameters: species or system HCV genotype 1a
Conditions: enzyme, strain 1a H77; read-out: HCV Polymerase Strain 1a H77 IC50
Method: Purified HCV NS5B polymerase enzymes were used for polymerase inhibition assays. […] The reaction was initiated by the addition of 20 μM CTP, 20 μM ATP, 0.284 μM (0.5 μCi) of 5,6-[^3H] […] After drying thoroughly in air, 30 μL of Microscint-20 scintillation cocktail (Perkin Elmer) was added to each well, and the retained cpm were determined by scintillation counting. IC50 values were determined by nonlinear regression. […]
testReadout: IC50 (nM)

>>> df
                          structureassmiles  numericvalue
0  CS(=O)(=O)N(CCCc1nsc(=O)[nH]1)c1cc2oc(-c3ccc(F)cc3)c(-c3ncc[nH]3)c2cc1C1CC1            13
1  CS(=O)(=O)N(Cc1cnc(-c2ccc3[nH]ccc3c2)s1)c1cc2oc(-c3ccc(F)cc3)c(-c3ncc[nH]3)c2cc1C1CC1           3.5
2  CCCN(c1cc2oc(-c3ccc(F)cc3)c(-c3ncc[nH]3)c2cc1C1CC1)S(C)(=O)=O           5.3
3  CCOC(=O)CCCN(c1cc2oc(-c3ccc(F)cc3)c(C3=NOCCN3)c2cc1C1CC1)S(C)(=O)=O           3.5
4  CS(=O)(=O)CCN(c1cc2oc(-c3ccc(F)cc3)c(C3=NOCCN3)c2cc1C1CC1)S(C)(=O)=O           3.9
5  CC(C)CN(c1cc2oc(-c3ccc(F)cc3)c(-c3ncc[nH]3)c2cc1C1CC1)S(C)(=O)=O           5.9
6  CS(=O)(=O)N(CCCC(=O)N1CCCCC1)c1cc2oc(-c3ccc(F)cc3)c(-c3ncc[nH]3)c2cc1C1CC1           6.9

----------
test system: HCV 1a-H77 subgenomic replicon; assay: microbe, parasite or virus in culture; format: cell-based, HCV genotype 1a; conditions: Hepatitis C virus, stable replicon, strain 1a H77, 5% FBS; read-out: 1a H77 5% FBS EC50
pEC50: −log10 of the molar value.
Label true when pEC50 is at or above 7; otherwise label false.

>>> df
                                   compound    cat
0  CCC1NC(c2c(-c3ccc(F)cc3)oc3cc(N(CCC(C)C)S(C)(=O)=O)c(C4CC4)cc23)=NO1 (stereo not shown)  false
1  CS(=O)(=O)N(CCCCO)c1cc2oc(-c3ccc(F)cc3)c(-c3noc(=O)[nH]3)c2cc1C1CC1  false
2  CC(C)(C)Oc1ncc(-c2ncc(CN(c3ccc4c(-c5ncc[nH]5)c(-c5ccccc5)oc4c3)S(C)(=O)=O)s2)c(OC(C)(C)C)n1  false
3  CC(c1ccccc1)N(c1ccc2c(-c3ncc[nH]3)c(-c3ccccc3)oc2c1)S(C)(=O)=O (stereo not shown)  false
4  Cc1c[nH]c(-c2c(-c3ccc(F)cc3)oc3cc(N(CCCCO)S(C)(=O)=O)c(C4CC4)cc23)n1   true
5  CC(C)CCN(c1cc2oc(-c3ccc(Nc4ccccc4)cc3)c(-c3ncc[nH]3)c2cc1C1CC1)S(C)(=O)=O   true

----------
Target: HCV NS5B polymerase 1a-H77 (Hepatitis C virus genotype 1a, UniProt P27958)
Construct: six-histidine tag; made in house; host or cells: E. coli
Experiment: biochemical
Set-up: species or system HCV genotype 1a
Conditions: enzyme, strain 1a H77; read-out: HCV Polymerase Strain 1a H77 IC50
Experimental: Purified HCV NS5B polymerase enzymes were used for polymerase inhibition assays. […] The reaction was initiated by the addition of 20 μM CTP, 20 μM ATP, 0.284 μM (0.5 μCi) of 5,6-[^3H] […] After drying thoroughly in air, 30 μL of Microscint-20 scintillation cocktail (Perkin Elmer) was added to each well, and the retained cpm were determined by scintillation counting. IC50 values were determined by nonlinear regression. […]
pIC50: −log10 of the molar value.
So basically: pIC50 at 8 or higher? That is fulfilled. Lower than 8? That is not fulfilled.

>>> print(df.to_string())
                                    compound            cat
 0  CS(=O)(=O)N(CC1CCCC1)c1cc2oc(-c3ccc(F)cc3)c(-c3ncc[nH]3)c2cc1C1CC1 [Example 34]      fulfilled
 1  CSCCN(c1cc2oc(-c3ccc(F)cc3)c(-c3ncc[nH]3)c2cc1C1CC1)S(C)(=O)=O [Example 74]      fulfilled
 2  CS(=O)(=O)N(CCCc1ccccc1)c1cc2oc(-c3ccc(F)cc3)c(-c3ncc[nH]3)c2cc1C1CC1 [Example 41]      fulfilled
 3  CS(=O)(=O)N(CCCCO)c1cc2oc(-c3ccc(F)cc3)c(C3=NOCCN3)c2cc1C1CC1 [Example 8]      fulfilled
 4  CS(=O)(=O)N(CCCC(=O)O)c1cc2oc(-c3ccc(F)cc3)c(-c3ncc[nH]3)c2cc1C1CC1 [Example 89]      fulfilled
 5  Cc1ccc(C)n1-c1ccc2c(-c3ncc[nH]3)c(-c3ccccc3)oc2c1 [Example 166]  not fulfilled
 6  CCN(CC)CCN(c1cc2oc(-c3ccc(F)cc3)c(C3=NOCCN3)c2cc1C1CC1)S(C)(=O)=O [Example 129]  not fulfilled
 7  CS(=O)(=O)N(CCCC#N)c1cc2oc(-c3ccc(F)cc3)c(-c3ncc[nH]3)c2cc1C1CC1 [Example 49]      fulfilled
 8  CCOC(=O)CCCCN(c1cc2oc(-c3ccc(F)cc3)c(-c3ncc[nH]3)c2cc1C1CC1)S(C)(=O)=O [Example 50]      fulfilled
 9  CS(=O)(=O)N(CCCS(N)(=O)=O)c1cc2oc(-c3ccc(F)cc3)c(-c3ncc[nH]3)c2cc1C1CC1 [Example 80]      fulfilled
10  CC(C)CCN(c1cc2oc(-c3ccc(F)cc3)c(-c3nccc(=O)[nH]3)c2cc1C1CC1)S(C)(=O)=O [Example 161]  not fulfilled
11  CS(=O)(=O)N(CCCS(N)(=O)=O)c1cc2oc(-c3ccc(F)cc3)c(C3=NOCCN3)c2cc1C1CC1 [Example 124]      fulfilled
12  CS(=O)(=O)N(Cc1cnc(-c2ccc3nc[nH]c3c2)s1)c1ccc2c(-c3ncc[nH]3)c(-c3ccccc3)oc2c1 [Example 3]      fulfilled
13  COc1ccc(CN(c2cc3oc(-c4ccc(F)cc4)c(C4=NOCC(=O)N4)c3cc2C2CC2)S(C)(=O)=O)cc1 [Example 160]  not fulfilled
14  CS(=O)(=O)N(CCCCCO)c1cc2oc(-c3ccc(F)cc3)c(C3=NOCN3)c2cc1C1CC1 [Example 147]      fulfilled
15  CC(C)(C)[Si](C)(C)OCCCCN(c1cc2oc(-c3ccc(F)cc3)c(-c3ncc[nH]3)c2cc1C1CC1)S(C)(=O)=O [Example 42]  not fulfilled
16  CS(=O)(=O)N(CCCO)c1cc2oc(-c3ccc(F)cc3)c(C3=NOCCN3)c2cc1C1CC1 [Example 137]      fulfilled
17  CS(=O)(=O)CCCN(c1cc2oc(-c3ccc(F)cc3)c(-c3ncc[nH]3)c2cc1C1CC1)S(C)(=O)=O [Example 101]      fulfilled
18  C=CCN(c1cc2oc(-c3ccc(F)cc3)c(-c3ncc[nH]3)c2cc1C1CC1)S(C)(=O)=O [Example 57]      fulfilled
19  Cc1ccc(C)n1-c1nc(CCCN(c2cc3oc(-c4ccc(F)cc4)c(-c4ncc[nH]4)c3cc2C2CC2)S(C)(=O)=O)cs1 [Example 62]      fulfilled

----------
target: HCV NS5B polymerase 1a-H77 (Hepatitis C virus genotype 1a); construct: six-histidine tag; made in house; host or cells: E. coli; experiment: biochemical; parameters: species or system HCV genotype 1a; conditions: enzyme, strain 1a H77; read-out: HCV Polymerase Strain 1a H77 IC50
testReadout: log10 IC50 (log10 of the value in nM)

In [3]: df
Out[3]:
                                    molecule  numericvalue
 0  CC(C)(C#N)CCCCN(c1cc2oc(-c3ccc(F)cc3)c(C3=NOCCN3)c2cc1C1CC1)S(C)(=O)=O          0.59
 1  CS(=O)(=O)N(CCCN1CCCC1)c1cc2oc(-c3ccc(F)cc3)c(C3=NOCCN3)c2cc1C1CC1          1.34
 2  CNC(=O)CCCN(c1cc2oc(-c3ccc(F)cc3)c(-c3ncc[nH]3)c2cc1C1CC1)S(C)(=O)=O          0.74
 3  CS(=O)(=O)NCCCN(c1cc2oc(-c3ccc(F)cc3)c(-c3ncc[nH]3)c2cc1C1CC1)S(C)(=O)=O          0.65
 4  CS(=O)(=O)N(CCCc1n[nH]c(=O)o1)c1cc2oc(-c3ccc(F)cc3)c(-c3ncc[nH]3)c2cc1C1CC1          0.60
 5  CS(=O)(=O)N(CCCc1noc(=S)[nH]1)c1cc2oc(-c3ccc(F)cc3)c(-c3ncc[nH]3)c2cc1C1CC1          0.60
 6  CS(=O)(=O)N(CCCc1noc(=O)[nH]1)c1cc2oc(-c3ccc(F)cc3)c(-c3ncc[nH]3)c2cc1C1CC1          0.78
 7  CS(=O)(=O)N(CCCCC(N)=O)c1cc2oc(-c3ccc(F)cc3)c(-c3ncc[nH]3)c2cc1C1CC1          0.72
 8  CCCC1NC(c2c(-c3ccc(F)cc3)oc3cc(N(CCC(C)C)S(C)(=O)=O)c(C4CC4)cc23)=NO1 (centres unmarked)          4.33
 9  COc1ccc(CN(c2cc3oc(-c4ccc(F)cc4)c(C4=NOCN4)c3cc2C2CC2)S(C)(=O)=O)cc1          0.78
10  CS(=O)(=O)N(CCC/C(N)=N/O)c1cc2oc(-c3ccc(F)cc3)c(-c3ncc[nH]3)c2cc1C1CC1          0.70
11  CS(=O)(=O)N(CCCCO)c1cc2oc(-c3ccc(F)cc3)c(C3=NOCN3)c2cc1C1CC1          0.48
12  CS(=O)(=O)N(CCCCCO)c1cc2oc(-c3ccc(F)cc3)c(-c3ncc[nH]3)c2cc1C1CC1          0.60
13  CS(=O)(=O)N(CC#N)c1cc2oc(-c3ccc(F)cc3)c(-c3ncc[nH]3)c2cc1C1CC1          0.65
